B1: scFv; the commonest letter at each place (parent)
chain 1: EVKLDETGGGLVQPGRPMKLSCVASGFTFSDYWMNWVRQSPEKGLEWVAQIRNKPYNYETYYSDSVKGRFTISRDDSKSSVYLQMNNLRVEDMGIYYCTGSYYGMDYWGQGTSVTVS
chain 2: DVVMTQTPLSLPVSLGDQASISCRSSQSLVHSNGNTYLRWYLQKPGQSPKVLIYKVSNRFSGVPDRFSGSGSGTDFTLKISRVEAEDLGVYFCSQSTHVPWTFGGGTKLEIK

variants of: B1; assay: yeast surface expression (ratio to wild type); higher = more expressed; conditions: format: scFv 4-4-20, heavy + light
Classification field: enter Yes for yeast surface expression values not below 0.5, No for values below it.

# mutationLabel, discreteLabel
rows = [
    ("chain 1 S30C W36Y", "Yes"),
    ("chain 1 D31L V37K", "Yes"),
    ("chain 1 Y32S M34S V37M", "Yes"),
    ("chain 1 Y102R Y107N", "Yes"),
    ("chain 1 S30C Y32V", "Yes"),
    ("chain 1 F29N V37G", "No"),
    ("chain 1 Y102C G109R", "No"),
    ("chain 1 G104Y G109R", "Yes"),
    ("chain 1 S30R M34D", "Yes"),
]

The measurements presented in this section are drawn from the FLAb antibody collection (doi:10.7554/elife.23156).
